targetDesc: human CRTH2 (Homo sapiens)
Construct: expressed in transfected cells; membranes used
Sequence (Q9Y5Y4 whole entry): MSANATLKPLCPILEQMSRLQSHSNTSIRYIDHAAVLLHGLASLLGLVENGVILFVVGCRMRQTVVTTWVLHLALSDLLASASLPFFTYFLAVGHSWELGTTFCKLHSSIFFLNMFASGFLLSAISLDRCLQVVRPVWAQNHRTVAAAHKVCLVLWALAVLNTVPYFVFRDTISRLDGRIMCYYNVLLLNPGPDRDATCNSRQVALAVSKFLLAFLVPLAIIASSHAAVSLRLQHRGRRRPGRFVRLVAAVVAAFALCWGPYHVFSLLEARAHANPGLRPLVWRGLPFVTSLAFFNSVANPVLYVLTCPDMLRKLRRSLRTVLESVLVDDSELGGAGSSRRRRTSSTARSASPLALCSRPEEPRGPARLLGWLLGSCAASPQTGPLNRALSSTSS
methodDescription: [35S]GTPγS binding assay (SPA)
Assay type: biochemical
runParameters: membranes from CHO-K1 cells stably expressing human CRTH2; 60 nM DHK-PGD2; read-out: CRTH2 GTPγS assay IC50
In this section we review reported IC50 values for a set of compounds.

{"smilesInput": "CCCCOC(=O)N(Cc1cccc(-c2cc(C(F)(F)F)ccc2OCC(=O)O)c1)c1ccccc1", "IC50": "100 to 1000 nM"}
{"smilesInput": "CCCCNC(=O)CN(Cc1cccc(-c2ccccc2OCC(=O)O)c1)C(=O)Cc1ccccc1", "IC50": "< 100 nM"}
{"smilesInput": "CN(Cc1cccc(-c2cc(C(F)(F)F)ccc2OCC(=O)O)c1)S(=O)(=O)c1ccccc1", "IC50": "100 to 1000 nM"}
